# tested-system: Hmlalpha2 (UniProt P0CY09)
# Sequence: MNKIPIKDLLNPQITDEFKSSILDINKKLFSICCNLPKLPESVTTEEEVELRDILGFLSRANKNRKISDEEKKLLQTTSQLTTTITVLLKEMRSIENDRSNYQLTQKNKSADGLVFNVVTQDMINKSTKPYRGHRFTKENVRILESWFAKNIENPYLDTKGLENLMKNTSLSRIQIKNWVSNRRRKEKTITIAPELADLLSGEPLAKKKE
# protocol-text: PBM E-score (8-mer binding enrichment) (E-score (-0.5 to 0.5)); higher = stronger / more preferred TF binding
# measurement-context: protein concentration: 200 nM; construct: GST-full length
Over roughly 33,000 sequences, “E-score (-0.5 to 0.5)” has its median near -0.04; the highest 2% begin near 0.36. Many of the other results were omitted from the sample, so the highest values are more common in it than they were.
Category | rule: reported PBM E-score within range, see group A = under -0.09, group B = from -0.09 up to 0.2, group C = 0.2 and over

sequence-string	group-label
GCGCGAAA	group B
AGCTGGAC	group B
GTAACACA	group C
ATACACAC	group C
ATTGTTGG	group B
GGTCTATA	group B
ATGCCCTG	group B
TGGTGACA	group B
ATAACACA	group C
CCTCAGCG	group A
ATGAGGCG	group A
AATGTAAA	group C
CGAGTGGA	group A
AGACTCAT	group B
GAGGTTAC	group B
CTCGTAAG	group B
AGCGTAAA	group C
AGTACATA	group C
AATGTAAT	group C
GGTTAACC	group A
CGTACATA	group C
CAAATGTA	group C
AGCGTAAG	group A
CTTGATCC	group A
CGCGTATC	group C
ATACACCG	group B
ACCGGTCT	group A
CATGAGTC	group B
CGTAAGTC	group B
GCTCAGAA	group B
AGTACATC	group C
CCATGATC	group A
CGCGCACA	group B
AATCCGTG	group A
CCTTGATC	group B
CTCAGAAG	group A
GGTACATA	group B
ATACACTC	group B
TCATGAGA	group B
TACTGTCA	group A
TGCCACCA	group A
AGCTCCCA	group A
GAAATGTA	group B
ACTGTAAA	group C
CAAAGGTC	group A
GAGCGCCA	group A
CCTAATCA	group B
AAATCTTC	group B
GACCCAGA	group A
ATGGTATA	group B
AGGTCGGA	group A
AACATATA	group C
GCCTCTGA	group A
ATAACAAG	group C
GCGACCAA	group A
CGCATAGC	group A
CACATGTC	group C
CTAACACC	group B
TAAATGTA	group C
GGTTAACA	group C
CCAGTAGG	group A
AGGGCCAG	group A
ACGAAAGA	group B
ATAACACC	group C
CTCCTCGC	group A
ACCTAGTC	group A
CCCTTTAG	group A
ATAACACG	group C
AGATTTAT	group B
AGCATTGA	group A
AGTACATG	group C
ACATGATA	group C
CTAACAAG	group B
CCCAAACG	group A
TCACAACA	group C
GCGACTCA	group A
ACATGATG	group C
ACATGATC	group C
GGCGTATA	group B
ACATGAGA	group C
TGCGTAAA	group C
TATCTGGA	group A
CGAAGCGA	group A
TACCCACA	group B
CGCCTGGC	group B
ATTCCCAC	group A
GAAGATAA	group C
TAAGCGAA	group B
GGTTAAGA	group B
AAATCTCA	group B
